# system: hmGluR1 receptor (Homo sapiens, UniProt Q13255)
# Construct: expressed in transfected cells
# Sequence (Q13255 19-1194): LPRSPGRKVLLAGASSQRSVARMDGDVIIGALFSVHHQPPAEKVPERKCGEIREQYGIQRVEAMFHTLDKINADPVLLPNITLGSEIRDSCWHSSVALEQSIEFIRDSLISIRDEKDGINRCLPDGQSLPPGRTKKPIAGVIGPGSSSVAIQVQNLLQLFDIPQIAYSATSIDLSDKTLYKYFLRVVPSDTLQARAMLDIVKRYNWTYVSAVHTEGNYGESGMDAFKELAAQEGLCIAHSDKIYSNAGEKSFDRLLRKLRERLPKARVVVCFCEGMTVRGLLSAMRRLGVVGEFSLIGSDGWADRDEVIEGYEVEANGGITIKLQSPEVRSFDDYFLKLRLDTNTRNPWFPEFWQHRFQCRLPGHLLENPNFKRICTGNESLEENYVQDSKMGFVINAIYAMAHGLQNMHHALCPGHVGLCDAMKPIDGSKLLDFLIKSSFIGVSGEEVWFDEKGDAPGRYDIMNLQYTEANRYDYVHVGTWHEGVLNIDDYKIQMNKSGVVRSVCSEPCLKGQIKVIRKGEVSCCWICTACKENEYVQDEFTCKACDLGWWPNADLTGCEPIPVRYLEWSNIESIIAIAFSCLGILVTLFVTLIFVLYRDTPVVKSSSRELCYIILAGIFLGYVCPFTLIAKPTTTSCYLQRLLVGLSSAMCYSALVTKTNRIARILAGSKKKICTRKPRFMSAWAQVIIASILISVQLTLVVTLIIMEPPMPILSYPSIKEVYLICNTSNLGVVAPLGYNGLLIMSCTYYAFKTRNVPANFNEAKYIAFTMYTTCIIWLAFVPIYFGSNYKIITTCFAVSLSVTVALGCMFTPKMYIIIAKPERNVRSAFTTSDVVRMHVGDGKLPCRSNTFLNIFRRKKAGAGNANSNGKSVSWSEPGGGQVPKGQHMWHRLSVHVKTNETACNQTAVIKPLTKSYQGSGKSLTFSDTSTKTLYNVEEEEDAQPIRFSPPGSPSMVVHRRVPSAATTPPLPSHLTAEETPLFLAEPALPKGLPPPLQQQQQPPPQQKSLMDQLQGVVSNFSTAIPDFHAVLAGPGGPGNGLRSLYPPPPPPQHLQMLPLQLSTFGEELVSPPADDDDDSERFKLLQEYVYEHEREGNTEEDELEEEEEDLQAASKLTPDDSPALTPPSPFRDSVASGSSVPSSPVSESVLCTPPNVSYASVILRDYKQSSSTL
# experimentNotes: IC50 determination: intracellular calcium mobilization (FLIPR) upon Quisqualate stimulation in CHO cells stably expressing hmGluR1
# Format: cell-based
# measurementSetup: against Quisqualate 1 μM (EC80), FLIPR calcium mobilization, read-out: IC50 Class
pIC50: −log10 of the molar value.
measuredMetric: pIC50

compound: CC(O)CCNc1ccnc2sc3c(=O)n(-c4ccc(Br)cc4)cnc3c12 (stereo not shown) [28HO]
pIC50: > 7.30
//
compound: C=CCN(C)c1ccnc2sc3c(=O)n(-c4ccc(Br)cc4)cnc3c12 [28EB]
pIC50: 6.82 to 7.30
//
compound: CCCCOc1ncnc2sc3c(=O)n(-c4ccc(OC)cc4)cnc3c12
pIC50: < 6.00

**Query** Supply measured pIC50 of CCNc1ncnc2sc3c(=O)n(-c4ccc5scnc5c4)cnc3c12 [95BJ] in your reply.
**Result** > 7.30

**Query** Specify reported pIC50 for the compound shown: COc1ccc(Nc2ncnc3sc4c(=O)n(C5CC5)cnc4c23)cc1 [95GL]
**Result** 6.00 to 6.82

**Query** # return recorded pIC50 for input O=c1c2sc3nccc(NCCCCO)c3c2ncn1-c1ccc(Cl)cc1 [28GE]
**Result** > 7.30

**Query** Tell me measured pIC50 for CCCNc1ncnc2sc3c(=O)n(-c4ccc(C)cc4)cnc3c12 [95FG] please.
**Result** > 7.30

**Query** Specify pIC50 for CCN(C)c1ccnc2sc3c(=O)n(-c4ccc(OC)cc4F)cnc3c12 [28BW] and stop.
**Result** > 7.30

**Query** Please indicate pIC50 recorded for CCN(C)c1ccnc2sc3c(=O)n(-c4ccc(OC)c(F)c4)cnc3c12 [28IA]
**Result** > 7.30

**Query** Return value of pIC50 for input C#CCNc1ncnc2sc3c(=O)n(-c4ccc(C)cc4)cnc3c12 [95EH] , no commentary.
**Result** > 7.30
